- procedure details: Clearance in cynomolgus monkey at 0.5 mg/kg, iv
- Type: ADME, organism-based, Macaca fascicularis
- assay setup: in vivo
readout type: clearance (mL/min/kg)
Express it in mL/min/kg; write the number only.

QUERY: Entry `COC(=O)Nc1ccc2c(c1)NC(=O)[C@H](C)CCC[C@H](N1CC[C@H](c3c(F)ccc(Cl)c3F)OC1=O)c1ncc-2[nH]1` has what clearance?
RESULT: 56

====

- procedure details: Apparent volume of distribution at steady-state in Beagle dog at 0.4 mg/kg, iv
- Type: ADME, organism-based, Canis lupus familiaris
- assay setup: in vivo, read-out: Vdss(app)
readout type: Vd

QUERY: I'd like to know its Vd. The molecule in question is `COC(=O)Nc1ccc2c(c1)NC(=O)[C@H](C)CCC[C@H](N1CC[C@H](c3c(F)ccc(Cl)c3F)OC1=O)c1ncc-2[nH]1`
RESULT: 5.1 L/kg

All values here come from ChEMBL document CHEMBL4616668.
